src = a melting point compilation (Tetko et al.)

reported-metric: melting point

The cases that follow already have their melting point on record.
# smiles-str, measured-value
data = [
    ("CCC(=O)c1ccc(C(=O)OC)cc1", "82 to 84 °C"),
    ("O=C(O)CSc1nccn1-c1cccc(F)c1", "140 to 142 °C"),
    ("N#Cc1cccnc1NCc1cccc(C(=O)O)c1", "197 to 199 °C"),
    ("N#Cc1ccc(N2CCC(N)CC2)cc1", "84 to 86 °C"),
]

Summary for this compound, `CCN(CCO)c1ccc(NS(=O)(=O)c2ccc(N)cc2)cc1` : melting point is 114 to 116 °C

Summary for this compound, `COc1ccc2oc(C)c(C(=O)O)c2c1` : melting point is 209 to 211 °C

Summary for this compound, `Cc1cc(N)nn1-c1ccc(F)cc1` : melting point is 70 to 72 °C
